Measurement record for Genome polyprotein (dengue virus type 2, UniProt P29990); quantity recorded: Ki.
Square brackets hold non-standard residues; d marks the D form. Peptide text beside a SMILES is read from it. * marks the point of attachment. NMeK = CN[C@@H](CCCCN)C(=O)O; dNle = CCCC[C@@H](N)C(=O)O; Nle = CCCC[C@H](N)C(=O)O; Bz = O=C(c1ccccc1)*
Dear colleague, please return just the value in µM, with no unit written.

Sample answers from the record:
compound	valueKind	valueReported
CCCC[C@@H](NC(=O)c1ccccc1)C(=O)N[C@@H](CCCCN)C(=O)N[C@@H](CCCN=C(N)N)C(=O)N[C@H](C=O)CCCN=C(N)N (Bz-[dNle]KRR-aldehyde)	Ki	9.4
CCCC[C@H](NC(=O)c1ccccc1)C(=O)N(C)[C@@H](CCCCN)C(=O)N[C@@H](CCCN=C(N)N)C(=O)N[C@H](C=O)CCCN=C(N)N (Bz-[Nle][NMeK]RR-aldehyde)	Ki	113

Then this compound:
Query CCCC[C@H](NC(=O)c1ccccc1)C(=O)N[C@@H](CCCCN)C(=O)N[C@@H](CCCNC(=N)N)C(=O)N[C@H](C=O)CCCNC(=N)N (Bz-[Nle]KRR-aldehyde) yields Ki of 5.8

meta.source: ChEMBL document CHEMBL1147782
